pIC50: −log10 of the molar value.
Here's a roundup of pIC50 values tested on SYK kinase (Homo sapiens, UniProt P43405), taken from various published works.
Quantity: pIC50

compound=CCc1ccccc1-c1cc2nccc(-c3cccc(C(=O)N[C@@H]4CCCC[C@@H]4N)c3)c2o1 tgt="SYK kinase (Homo sapiens, UniProt P43405)" result="4.30 to 5.52"
compound=Oc1ccccc1Nc1nc(-c2ccc3cn[nH]c3c2)nc2cn[nH]c12 tgt="SYK kinase (Homo sapiens, UniProt P43405)" result="6.00 to 7.00"
compound=COc1cc(Nc2ncc3cc(-c4cc(C(=O)Nc5cc(C(C)(C)C)cc(C(N)=O)c5OC)ccc4C)ccc3n2)cc(C(=O)NCCN2CCOCC2)c1 tgt="SYK kinase (Homo sapiens, UniProt P43405)" result=6.11
compound=COCC(COC)n1cc(Nc2nc3cccc(OC)c3c3cn[nH]c23)cn1 tgt="SYK kinase (Homo sapiens, UniProt P43405)" result="6.00 to 7.00"
compound=CC(=O)N1C[C@H](O)C[C@@H]1c1nc(-c2ccc(Cn3nccn3)cc2)c2cnc3[nH]ccc3n12 tgt="SYK kinase (Homo sapiens, UniProt P43405)" result="7.00 to 7.52"
compound=COc1cc(-c2cc3nccc(-c4cccc(NC(C)=O)c4)c3o2)cc(OC)c1OC tgt="SYK kinase (Homo sapiens, UniProt P43405)" result="5.52 to 6.52"
compound=CC(=O)Nc1cc(Nc2nc3ccc(S(C)(=O)=O)cc3c3c[nH]nc23)ccc1N1CCN(C(C)=O)CC1 tgt="SYK kinase (Homo sapiens, UniProt P43405)" result="7.00 to 8.00"
compound=CS(=O)(=O)Nc1cccc(-c2nc(Nc3cnn(CCO)c3)c3[nH]ncc3n2)c1 tgt="SYK kinase (Homo sapiens, UniProt P43405)" result="6.00 to 7.00"
compound=COc1cc(-c2cc3nccc(-c4cccc(C(=O)NCC(C)(C)N)c4)c3o2)cc(OC)c1OC tgt="SYK kinase (Homo sapiens, UniProt P43405)" result="4.30 to 5.52"
compound=Cn1cc(-c2nccn3nc(Nc4ccc(S(N)(=O)=O)cc4)nc23)cn1 tgt="SYK kinase (Homo sapiens, UniProt P43405)" result="5.52 to 6.52"
compound=OC1CCN(c2ccc(Nc3nc(-c4ccoc4)nc4cn[nH]c34)cc2)CC1 tgt="SYK kinase (Homo sapiens, UniProt P43405)" result="7.00 to 8.00"
compound=Cn1cc(-c2nc(Nc3cnn(C4CCOCC4)c3)c3[nH]ncc3n2)cn1 tgt="SYK kinase (Homo sapiens, UniProt P43405)" result="7.00 to 8.00"
compound=C=C(C)Cn1cc(Nc2nc3ccc(S(C)(=O)=O)cc3c3cn[nH]c23)cn1 tgt="SYK kinase (Homo sapiens, UniProt P43405)" result="7.00 to 8.00"
compound=c1cc(Nc2nccc(-c3nccs3)n2)cc(OCc2ccncc2)c1 tgt="SYK kinase (Homo sapiens, UniProt P43405)" result="< 5.70"
compound=COc1ccc(-c2nc([C@H]3C[C@@H](O)CN3C(C)=O)n3c2cnc2[nH]ccc23)cc1F tgt="SYK kinase (Homo sapiens, UniProt P43405)" result="7.00 to 7.52"
compound="COc1cc(-c2cc3nccc(-c4cccc(C(=O)NC5CCNC5)c4)c3o2)cc(OC)c1OC (centres unmarked)" tgt="SYK kinase (Homo sapiens, UniProt P43405)" result="> 6.52"
compound=Cn1c(=O)c(Nc2ccccn2)cc2c(F)c(-c3cc[nH]n3)ccc21 tgt="SYK kinase (Homo sapiens, UniProt P43405)" result=7.00
compound=COCCOCCOCCNC(=O)c1cc(Nc2cc(Oc3ccc(NC(=O)Nc4cc(C(C)(C)C)cc(CNC(=O)CN(C)C)c4OC)c4ccccc34)ccn2)cc(OC)c1 tgt="SYK kinase (Homo sapiens, UniProt P43405)" result=7.29
compound="CC1(C)C(=O)Nc2cc(Nc3nc4c(N5CCC(C(=O)NC6CC6)C5)nccn4n3)ccc21 (centres unmarked)" tgt="SYK kinase (Homo sapiens, UniProt P43405)" result="6.52 to 7.00"
compound=N#CC1(c2ccc(-c3cc4nccnc4c(OC[C@@H]4CN(S(N)(=O)=O)CCO4)n3)cc2)CCC1 tgt="SYK kinase (Homo sapiens, UniProt P43405)" result=7.29
compound=CC(C)(N)c1ccc(-c2cc3nccnc3c(OC[C@@H]3CN(S(C)(=O)=O)CCO3)n2)cc1 tgt="SYK kinase (Homo sapiens, UniProt P43405)" result=6.87
compound=COc1c(CC(N)=O)cc(C(C)(C)C)cc1NC(=O)Nc1ccc(Oc2ccnc(Nc3cc(C#N)cc(OCCN4CCOCC4)c3)c2)c2ccccc12 tgt="SYK kinase (Homo sapiens, UniProt P43405)" result="< 5.87"
compound="CS(=O)(=O)N1CCC(c2ccc(-c3cc4nccnc4c(OCC4OCCNC4=O)n3)cc2)CC1 (centres unmarked)" tgt="SYK kinase (Homo sapiens, UniProt P43405)" result=6.92
compound=CC(C)(C)n1cc(Nc2nc(C3CC3)nc3cn[nH]c23)cn1 tgt="SYK kinase (Homo sapiens, UniProt P43405)" result="7.00 to 8.00"
compound=CC(C)(C)n1cc(Nc2nc(C3CCC3)nc3cn[nH]c23)cn1 tgt="SYK kinase (Homo sapiens, UniProt P43405)" result="7.00 to 8.00"
compound=COCCOCCOCCNC(=O)c1cc(Nc2nccc(Oc3ccc(NC(=O)Nc4cc(C(C)(C)C)nn4-c4ccc(N(C)C)cc4)c4ccccc34)n2)cc(OC)c1 tgt="SYK kinase (Homo sapiens, UniProt P43405)" result=7.57
compound="Cc1ccnc(Nc2cccc(-c3cnc(N4CCNC(=O)C4C(C)C)o3)c2)n1 (centres unmarked)" tgt="SYK kinase (Homo sapiens, UniProt P43405)" result="≥ 7.00"
compound=CC1(C)C(=O)Nc2cc(Nc3nc4c(-c5cn[nH]c5)nccn4n3)ccc21 tgt="SYK kinase (Homo sapiens, UniProt P43405)" result="> 7.00"
compound=CN1CCC(n2cc(Nc3nc(-c4nc5ccccc5s4)nc4cn[nH]c34)cn2)CC1 tgt="SYK kinase (Homo sapiens, UniProt P43405)" result="7.00 to 8.00"
compound=COc1nn(C(C)C)cc1Nc1nc2ccc(S(C)(=O)=O)cc2c2cn[nH]c12 tgt="SYK kinase (Homo sapiens, UniProt P43405)" result="6.00 to 7.00"
compound="COC(C)c1ccc(-c2cc3nccnc3c(OC[C@@H]3CN(C(C)=O)CCO3)n2)cc1 (some centres unmarked)" tgt="SYK kinase (Homo sapiens, UniProt P43405)" result=6.95
compound=COc1ccc(C(C)C)cc1-c1cnc2[nH]c(=O)n([C@H](CO)C(C)C)c2n1 tgt="SYK kinase (Homo sapiens, UniProt P43405)" result="5.30 to 7.00"

----------
The entries that follow carry IC50 values tested on SYK kinase (Homo sapiens), drawn from several published reports.
Quantity: IC50

molecule=Cc1ccc(-n2nc(C(C)(C)C)cc2NC(=O)Nc2ccc(OCc3ccnc(Nc4cnc(C(=O)NCCN5CCOCC5)cn4)c3)c3ccccc23)cc1 tgt="SYK kinase (Homo sapiens)" quantity=IC50 result="> 13200 nM"
molecule=CC(C)(C)N1CCC(n2cc(Nc3nc4ccc(S(C)(=O)=O)cc4c4cn[nH]c34)cn2)CC1 tgt="SYK kinase (Homo sapiens)" quantity=IC50 result="< 10 nM"
molecule=COCCn1cc(Nc2nc(-c3ccc4cn[nH]c4c3)nc3cn[nH]c23)cn1 tgt="SYK kinase (Homo sapiens)" quantity=IC50 result="10 to 100 nM"
molecule=COc1cc(Nc2nccc(Oc3ccc(NC(=O)Nc4cc(C(C)(C)C)cc(P(C)(C)=O)c4OC)c4ccccc34)n2)cc(OC)c1 tgt="SYK kinase (Homo sapiens)" quantity=IC50 result="69 nM"
molecule=COc1ccc2nc(Nc3cnn(C4CCN(C(C)=O)CC4)c3)c3n[nH]cc3c2c1 tgt="SYK kinase (Homo sapiens)" quantity=IC50 result="10 to 100 nM"
molecule=COc1cc(Nc2nc3c(-c4cccc5[nH]ncc45)nccn3n2)cc(OC)c1 tgt="SYK kinase (Homo sapiens)" quantity=IC50 result="< 300 nM"
molecule=CC1(C)C(=O)Nc2cc(Nc3nc4c(N5CCC(F)(F)C5)nccn4n3)ccc21 tgt="SYK kinase (Homo sapiens)" quantity=IC50 result="< 100 nM"
molecule=CN1CCC(n2cc(Nc3nc(-c4nc5ccccc5o4)nc4cn[nH]c34)cn2)CC1 tgt="SYK kinase (Homo sapiens)" quantity=IC50 result="10 to 100 nM"
molecule=CC1(C)CC(=O)Nc2cc(Nc3nc4c(N5CC[C@@]6(CC(=O)NC6=O)C5)nccn4n3)ccc21 tgt="SYK kinase (Homo sapiens)" quantity=IC50 result="< 100 nM"
molecule="CC(C)c1ccnc(Nc2cccc(-c3cnc(N4CCNC(=O)C4C(C)C)o3)c2)n1 (stereo not shown)" tgt="SYK kinase (Homo sapiens)" quantity=IC50 result="≤ 100 nM"
molecule=COc1cccc(-c2cc3nccc(-c4cccc(OC)c4)c3o2)c1 tgt="SYK kinase (Homo sapiens)" quantity=IC50 result="3000 to 50000 nM"
molecule=COc1cc(-c2cc3nccc(-c4cc(OC)c(OC)c(OC)c4)c3o2)cc(OC)c1OC tgt="SYK kinase (Homo sapiens)" quantity=IC50 result="< 300 nM"
molecule=COc1c(CC(N)=O)cc(C(C)(C)C)cc1NC(=O)Nc1ccc(Oc2ccnc(Nc3ccccc3)c2)c2ccccc12 tgt="SYK kinase (Homo sapiens)" quantity=IC50 result="1390 nM"
molecule=COc1cc(Nc2cc(Oc3ccc(NC(=O)Nc4cc(C(C)(C)C)cc(NS(C)(=O)=O)c4OC)c4ccccc34)ccn2)cc(C(=O)NCCN2CCN(C)CC2)c1 tgt="SYK kinase (Homo sapiens)" quantity=IC50 result="339 nM"
molecule=CNC(=O)COc1cccc(Nc2nc(N[C@H]3[C@@H](C(N)=O)[C@@H]4C=C[C@H]3C4)c3nc[nH]c3n2)c1 tgt="SYK kinase (Homo sapiens)" quantity=IC50 result="< 10000 nM"
molecule=C#Cc1cc(Nc2cc(Oc3ccc(NC(=O)Nc4cc(C(C)(C)C)cc(NS(C)(=O)=O)c4OC)c4ccccc34)ccn2)cc(C(=O)NCCN2CCOCC2)c1 tgt="SYK kinase (Homo sapiens)" quantity=IC50 result="1220 nM"
molecule=CC1(C)C(=O)Nc2cc(Nc3nc4c(-c5cnn(C6CCOCC6)c5)nccn4n3)ccc21 tgt="SYK kinase (Homo sapiens)" quantity=IC50 result="< 100 nM"
molecule=CN1CCC(n2cc(Nc3nc(-c4ncco4)nc4cn[nH]c34)cn2)CC1 tgt="SYK kinase (Homo sapiens)" quantity=IC50 result="100 to 1000 nM"
molecule="COC1CNc2cc(Nc3ncc(C(N)=O)c(NC4CC4)n3)ccc2OC1 (stereo not shown)" tgt="SYK kinase (Homo sapiens)" quantity=IC50 result="10 to 100 nM"
molecule=CC(C)n1cc(Nc2nc(-c3cccc(S(N)(=O)=O)c3)nc3cn[nH]c23)cn1 tgt="SYK kinase (Homo sapiens)" quantity=IC50 result="10 to 100 nM"
molecule=COc1ccc(Nc2nc3cc(S(C)(=O)=O)ccc3c3cn[nH]c23)cc1OC tgt="SYK kinase (Homo sapiens)" quantity=IC50 result="100 to 1000 nM"
molecule=O=C(O)/C=C/c1cccc(-c2cnc3[nH]cc(C(=O)c4ccccc4F)c3c2)c1 tgt="SYK kinase (Homo sapiens)" quantity=IC50 result="≤ 10000 nM"
molecule=CS(=O)(=O)c1ccc2nc(Nc3cnn(C4COC4)c3)c3[nH]ncc3c2c1 tgt="SYK kinase (Homo sapiens)" quantity=IC50 result="< 10 nM"
molecule=COc1ccc([C@H](C)N)cc1-c1ccnc2cc(-c3cc(OC)c(OC)c(OC)c3)oc12 tgt="SYK kinase (Homo sapiens)" quantity=IC50 result="300 to 3000 nM"
molecule=c1cn2cc(-c3cnc4c(c3)NCCO4)nc(Nc3ccc(C4CCOCC4)cc3)c2n1 tgt="SYK kinase (Homo sapiens)" quantity=IC50 result="7 nM"
molecule=CS(=O)(=O)c1ccc2nc(Nc3cnn(CCF)c3)c3[nH]ncc3c2c1 tgt="SYK kinase (Homo sapiens)" quantity=IC50 result="< 10 nM"
molecule=c1cc(N2CCOCC2)ccc1Nc1nc2cncc(-c3cnn(CCN4CCOCC4)c3)n2n1 tgt="SYK kinase (Homo sapiens)" quantity=IC50 result="1000 to 5000 nM"
molecule=COc1ccc(S(N)(=O)=O)cc1-c1cc2nccc(-c3c(OC)cccc3OC)c2o1 tgt="SYK kinase (Homo sapiens)" quantity=IC50 result="300 to 3000 nM"
molecule=COc1ccccc1COc1cccc(Nc2nccc(-c3nccs3)n2)c1 tgt="SYK kinase (Homo sapiens)" quantity=IC50 result="< 500 nM"
molecule=CO/N=C(/C)c1ccc(Nc2nc(-c3cnc4c(c3)NCCO4)cn3ccnc23)cc1 tgt="SYK kinase (Homo sapiens)" quantity=IC50 result="7 nM"
molecule=COC(=O)c1cccc(-c2ccnc3cc(-c4cc(OC)c(OC)c(OC)c4)oc23)c1 tgt="SYK kinase (Homo sapiens)" quantity=IC50 result="300 to 3000 nM"
